Assay: Bi-directional Caco-2 cell permeability assay
Conditions: human, Caco-2, pH 7.4
Readout Kind: efflux ratio at 1 h, 10 μM

>  <Compound>
CC(C)OC(=O)[C@H](C)N[P@](=O)(OC[C@H]1O[C@@H](n2ccc(=O)[nH]c2=O)[C@](C)(F)[C@@H]1O)Oc1ccccc1 [Sofosbuvir]

>  <Reported Result>
4.6

$$$$
>  <Compound>
CCCOC(=O)[C@H](C)N[P@](=O)(OC[C@H]1O[C@@H](n2ccc(=O)[nH]c2=O)[C@](C)(F)[C@@H]1O)Oc1ccccc1 [n-Propyl-Sofosbuvir]

>  <Reported Result>
4.4

$$$$
